Tested on: IGROV1 complex spheroids (HUVEC, MSC), viability % test/control
Test: Anticancer human tumor IGROV1 cell line growth inhibition [GQUAD]; active means viability on the fitted dose curve at most 10% of control; inactive means the rest;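 further: spheroids exposed to compounds for 7 days before readout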
Details: second compound 0.1 µM; first compound 0.316 µM
Pick from T for active, F for inactive when you respond.

Please review the entries below; each comes with its answer.
COc1ccc([C@@H](O)c2cc(-c3ncnc4cc(N5CCOCC5)ccc34)c(F)cc2Cl)nn1 + Cc1[nH]c2ccc(F)cc2c1-c1nc2c3cccnc3c3ncccc3c2[nH]1 | F
COc1ncnc(C2CC2)c1-c1ncc2cnn(Cc3ccc(-c4nc(C(F)(F)F)cn4C(C)C)cc3)c2n1 + Cc1[nH]c2ccc(F)cc2c1-c1nc2c3cccnc3c3ncccc3c2[nH]1 | F

Now look at this entry.
Fill in: this test's call for O=C(NO)c1cnc(N2CCN(S(=O)(=O)c3ccc4ccccc4c3)CC2)nc1 + Cc1cnc(CNC(=O)c2c(=O)c3ccc(N4CCCN(C)CC4)nc3n3c2sc2ccccc23)cn1 is ___
T
